- Test system: interferon-α
- TEST_PROTOCOL: Interferon-α induction in human cells, PBM
- Assay type: cell-based
- EXPERIMENTAL_SETUP: dose concentration 0.10 μg/mL, 24 hours

COMPOUND: CC(=O)NCc1nc2c(N)nc3ccccc3c2n1CC(C)C
Interferon-α induction: <1.8 α Reference Units/mL
//
COMPOUND: CC(C)Cn1c(C(O)c2ccc(Cl)cc2)nc2c(N)nc3ccccc3c21 (stereo not drawn)
Interferon-α induction: <4 α Reference Units/mL
//
COMPOUND: COC(C)c1nc2c(N)nc3ccccc3c2n1CC(C)C (stereo not drawn)
Interferon-α induction: <5 α Reference Units/mL
